Reported fold change (FC) by item:
Test system: Human immunodeficiency virus 1
assay_remarks: Antiviral activity against HIV1 isolate 1 harboring protease L10I, E35D, N37D, M46I, I54V, G57R, L63P, A71V, T74P, I84V, L90M, I93L mutant infected in human MT4 cells assessed as inhibition of virus-induced cell death after 5 days by MTT assay relative to wild type HIV1 pNL4-3
Assay type: functional
property_measured: fold change (FC)

# compound, property_measured, val
records = [
    ("COC(=O)N[C@H](C(=O)N[C@@H](Cc1ccccc1)C[C@H](O)[C@H](Cc1ccc(-c2ccc(OC)cc2)cc1)NC(=O)[C@@H](NC(=O)OC)C(C)(C)C)C(C)(C)C", "fold change (FC)", 34),
    ("Cc1cccc(C)c1OCC(=O)N[C@@H](Cc1ccccc1)[C@@H](O)C[C@H](Cc1ccccc1)NC(=O)[C@H](C(C)C)N1CCCNC1=O [LOPINAVIR]", "fold change (FC)", 62),
    ("CNC(=O)c1ccc(-c2ccc(C[C@H](NC(=O)[C@@H](NC(=O)OC)C(C)(C)C)[C@@H](O)C[C@H](Cc3ccccc3)NC(=O)[C@@H](NC(=O)OC)C(C)(C)C)cc2)cc1", "fold change (FC)", 7),
    ("COC(=O)N[C@H](C(=O)N[C@@H](Cc1ccccc1)C[C@H](O)[C@H](Cc1ccc(-c2cccc(CO)c2)cc1)NC(=O)[C@@H](NC(=O)OC)C(C)(C)C)C(C)(C)C", "fold change (FC)", 52),
    ("COC(=O)N[C@H](C(=O)N[C@@H](Cc1ccccc1)C[C@H](O)[C@H](Cc1ccc(-c2ccc(F)nc2)cc1)NC(=O)[C@@H](NC(=O)OC)C(C)(C)C)C(C)(C)C", "fold change (FC)", 58),
    ("COC(=O)N[C@H](C(=O)N[C@@H](Cc1ccccc1)C[C@H](O)[C@H](Cc1ccc(-c2cccnc2)cc1)NC(=O)[C@@H](NC(=O)OC)C(C)(C)C)C(C)(C)C", "fold change (FC)", 29),
]
